Field: Emax. Provide a value for each of the molecules that follow.
- measured_on: glutathione-S-transferase (GST) tagged LXRbeta LBD (ligand binding domain) (Homo sapiens)
- Construct: purchased Invitrogen pv4658
- Sequence (P55055 222-460 limits assumed): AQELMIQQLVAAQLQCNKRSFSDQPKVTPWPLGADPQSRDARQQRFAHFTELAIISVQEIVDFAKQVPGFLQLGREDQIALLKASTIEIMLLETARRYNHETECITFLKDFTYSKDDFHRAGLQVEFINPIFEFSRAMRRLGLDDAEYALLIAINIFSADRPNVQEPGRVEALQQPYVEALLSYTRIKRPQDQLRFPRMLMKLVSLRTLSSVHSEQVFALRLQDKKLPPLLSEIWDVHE
- assay_notes: LanthaScreen TR-FRET Liver X Receptor Coactivator Assay, LXR beta
- Assay type: biochemical
- test_parameters: read-out: LXR beta actiivty at max dose, efficacy (% Emax) in relation to reference dual agonist T0901317

Examples with answers:
1) O=C(NCC(F)F)c1ccc(OCCCCC2CCN(C(=O)[C@](O)(c3ccccc3)C(F)(F)F)CC2)cc1Cl (single isomer, unassigned) | 82%
2) CN(C)C(=O)c1ccc(OCCCC2CCN(C(=O)c3cc(F)ccc3F)CC2)cc1Cl | 62%

Turning now to a further molecule:
Input line: Find the recorded Emax belonging to CCC(C)(C(=O)N1CCC2(CC1)C[C@H]2CCOc1ccc(C(=O)N(C)C)c(Cl)c1)c1ccccc1 (single isomer, unassigned) and report it.
Output line: 72%

Data origin: patent US11655216B2
